# Tested on: 633275-114-R-J1-PDC complex spheroids, viability
# protocol_description: Anticancer human tumor 633275-114-R-J1-PDC patient-derived endometrial adenocarcinoma cell line growth inhibition [GQUAD]
# particulars: second compound 10 µM; first compound 3.16 µM; stronger effect = lower value
metric_name: viability, T/C (%)
Write the answer as a number in %, unit excluded.

Worked examples follow.
compound | viability, T/C [%]
CC(=O)O[C@H]1C(=O)[C@@]2(C)[C@H]([C@H](OC(=O)c3ccccc3)[C@]3(O)C[C@H](OC(=O)[C@H](O)[C@@H](NC(=O)c4ccccc4)c4ccccc4)C(C)=C1C3(C)C)[C@]1(OC(C)=O)CO[C@@H]1C[C@@H]2O + CN(C)c1ccc(Nc2c3ccc(NC(=O)CCN4CCCC4)cc3nc3cc(NC(=O)CCN4CCCC4)ccc23)cc1 | 15.2
O=C(NO)c1cnc(N2CCN(S(=O)(=O)c3ccc4ccccc4c3)CC2)nc1 + Cc1[nH]c2ccc(F)cc2c1-c1nc2c3cccnc3c3ncccc3c2[nH]1 | 17.8
CCCS(=O)(=O)Nc1ccc(F)c(C(=O)c2c[nH]c3ncc(-c4ccc(Cl)cc4)cc23)c1F + Cc1[nH]c2ccc(F)cc2c1-c1nc2c3cccnc3c3ncccc3c2[nH]1 | 63.3
COc1ccc([C@@H](O)c2cc(-c3ncnc4cc(N5CCOCC5)ccc34)c(F)cc2Cl)nn1 + Cc1cnc(CNC(=O)c2c(=O)c3ccc(N4CCCN(C)CC4)nc3n3c2sc2ccccc23)cn1 | 16

Now look at this one.
*Q* Any idea what viability, T/C came out for Nc1ccn(C2OC(CO)C(O)C2(F)F)c(=O)n1 (stereo not given) + CN(C)c1ccc(Nc2c3ccc(NC(=O)CCN4CCCC4)cc3nc3cc(NC(=O)CCN4CCCC4)ccc23)cc1 on 633275-114-R-J1-PDC complex spheroids, viability?
*A* 11

----------
Overview of recorded viability, T/C for various compounds
# Tested on: 633275-114-R-J1-PDC complex spheroids, viability
# protocol_description: Anticancer human tumor 633275-114-R-J1-PDC cell line growth inhibition [GQUAD];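 also: spheroids exposed to the agents for seven days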;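 as to viability, T/C: percent of DMSO vehicle control viability which is 100%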
# particulars: second compound 10 µM; first compound 0.1 µM; stronger effect = lower value
Write the answer as a number in %, unit excluded.

compound | unit_of_measurement | viability, T/C
CC(=O)O[C@H]1C(=O)[C@@]2(C)[C@H]([C@H](OC(=O)c3ccccc3)[C@]3(O)C[C@H](OC(=O)[C@H](O)[C@@H](NC(=O)c4ccccc4)c4ccccc4)C(C)=C1C3(C)C)[C@]1(OC(C)=O)CO[C@@H]1C[C@@H]2O + Cc1cnc(CNC(=O)c2c(=O)c3ccc(N4CCCN(C)CC4)nc3n3c2sc2ccccc23)cn1 | % | 28.7

Now look at this one.
*Q* Any idea what viability, T/C came out for CC(=O)O[C@H]1C(=O)[C@@]2(C)[C@H]([C@H](OC(=O)c3ccccc3)[C@]3(O)C[C@H](OC(=O)[C@H](O)[C@@H](NC(=O)c4ccccc4)c4ccccc4)C(C)=C1C3(C)C)[C@]1(OC(C)=O)CO[C@@H]1C[C@@H]2O + CN(C)c1ccc(Nc2c3ccc(NC(=O)CCN4CCCC4)cc3nc3cc(NC(=O)CCN4CCCC4)ccc23)cc1 on 633275-114-R-J1-PDC complex spheroids, viability?
*A* 15.3

----------
# System: 633275-114-R-J1-PDC complex spheroids, viability
# protocol_description: Anticancer human tumor 633275-114-R-J1-PDC cell line growth inhibition [GQUAD];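 also: spheroids exposed to the agents for seven days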
# particulars: curve of first compound; second compound 3.16 µM
metric_name: IC50

compound | result
Cn1ncnc1[C@H]1c2n[nH]c(=O)c3cc(F)cc(c23)N[C@@H]1c1ccc(F)cc1 + CN(C)c1ccc(Nc2c3ccc(NC(=O)CCN4CCCC4)cc3nc3cc(NC(=O)CCN4CCCC4)ccc23)cc1 | > 316 nM
COc1ncnc(C2CC2)c1-c1ncc2cnn(Cc3ccc(-c4nc(C(F)(F)F)cn4C(C)C)cc3)c2n1 + Cc1cnc(CNC(=O)c2c(=O)c3ccc(N4CCCN(C)CC4)nc3n3c2sc2ccccc23)cn1 | < 31.6 nM
CC(=O)O[C@H]1C(=O)[C@@]2(C)[C@H]([C@H](OC(=O)c3ccccc3)[C@]3(O)C[C@H](OC(=O)[C@H](O)[C@@H](NC(=O)c4ccccc4)c4ccccc4)C(C)=C1C3(C)C)[C@]1(OC(C)=O)CO[C@@H]1C[C@@H]2O + Cc1[nH]c2ccc(F)cc2c1-c1nc2c3cccnc3c3ncccc3c2[nH]1 | < 31.6 nM

Now look at this one.
*Q* Given the entry O=C(c1cc(Cc2n[nH]c(=O)c3ccccc23)ccc1F)N1CCN(C(=O)C2CC2)CC1 + CN(C)c1ccc(Nc2c3ccc(NC(=O)CCN4CCCC4)cc3nc3cc(NC(=O)CCN4CCCC4)ccc23)cc1 , report its measured IC50.
*A* 5360 nM
